Just for reference, PubChem BioAssay AID1963838 is where these values come from.

# Test system: 855422-203-R-J1-PDC complex spheroid viability
# assay-method-text: Anticancer human tumor 855422-203-R-J1-PDC patient-derived bladder carcinoma cell line growth inhibition [POLQ]
# condition-info: second compound 3.16 µM; first compound 0.316 µM; active compounds read low
# viability, T/C listing for each entry below

compound	viability, T/C [%]
CC(C)n1c(=O)n(C)c2cnc3cc(F)c(-c4ccc(OCCCN5CCCCC5)nc4)cc3c21 + Cc1cccc(N(C)C(=O)C2C(O)CCN2c2nc(C)cc(C(F)(F)F)c2C#N)c1	112
C=CC(=O)N1CCN(c2nc(=O)n(-c3c(C)ccnc3C(C)C)c3nc(-c4c(O)cccc4F)c(F)cc23)C(C)C1 (stereo not drawn) + COC1C(OC(N)=O)C(O)C(Oc2ccc3c(O)c(NC(=O)c4ccc(O)c(CC=C(C)C)c4)c(=O)oc3c2C)OC1(C)C	108
CC1COCCN1c1cc(C2(O)CC3CCC(C2)O3)c2cnn(-c3ccn[nH]3)c2n1 (stereo not drawn) + Cc1cccc(N(C)C(=O)C2C(O)CCN2c2nc(C)cc(C(F)(F)F)c2C#N)c1	10.4

###

# viability, T/C listing for each entry below
# Tested on: 855422-203-R-J1-PDC complex spheroid viability
# assay-method-text: Anticancer human tumor 855422-203-R-J1-PDC cell line growth inhibition [POLQ];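 further: spheroids exposed to compounds for seven days before readout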
# condition-info: second compound 1 µM; first compound 0.00316 µM; active compounds read low

molecule	tested-target	unit-spec	viability, T/C
Cn1ncnc1[C@H]1c2n[nH]c(=O)c3cc(F)cc(c23)N[C@@H]1c1ccc(F)cc1 + COC1C(OC(N)=O)C(O)C(Oc2ccc3c(O)c(NC(=O)c4ccc(O)c(CC=C(C)C)c4)c(=O)oc3c2C)OC1(C)C	855422-203-R-J1-PDC complex spheroid viability	%	106
CCc1c2c(nc3ccc(O)cc13)-c1cc3c(c(=O)n1C2)COC(=O)[C@]3(O)CC + Cc1cccc(N(C)C(=O)C2C(O)CCN2c2nc(C)cc(C(F)(F)F)c2C#N)c1	855422-203-R-J1-PDC complex spheroid viability	%	44.8
C=CCn1c(=O)c2cnc(Nc3ccc(N4CCN(C)CC4)cc3)nc2n1-c1cccc(C(C)(C)O)n1 + Cc1cccc(N(C)C(=O)C2C(O)CCN2c2nc(C)cc(C(F)(F)F)c2C#N)c1	855422-203-R-J1-PDC complex spheroid viability	%	87.7
CC[C@@]1(O)C(=O)OCc2c1cc1n(c2=O)Cc2cc3c(CN(C)C)c(O)ccc3nc2-1 + Cc1cccc(N(C)C(=O)C2C(O)CCN2c2nc(C)cc(C(F)(F)F)c2C#N)c1	855422-203-R-J1-PDC complex spheroid viability	%	116
Cn1ncnc1[C@H]1c2n[nH]c(=O)c3cc(F)cc(c23)N[C@@H]1c1ccc(F)cc1 + Cc1cccc(N(C)C(=O)C2C(O)CCN2c2nc(C)cc(C(F)(F)F)c2C#N)c1	855422-203-R-J1-PDC complex spheroid viability	%	112
CC[C@@]1(O)C(=O)OCc2c1cc1n(c2=O)Cc2cc3c(CN(C)C)c(O)ccc3nc2-1 + Nc1ccc(C#CCN(C(=O)Cc2ncc(C(F)(F)F)cc2C(F)(F)F)c2ccc(F)cc2)nn1	855422-203-R-J1-PDC complex spheroid viability	%	109
CC[C@@]1(O)C(=O)OCc2c1cc1n(c2=O)Cc2cc3c(CN(C)C)c(O)ccc3nc2-1 + COC1C(OC(N)=O)C(O)C(Oc2ccc3c(O)c(NC(=O)c4ccc(O)c(CC=C(C)C)c4)c(=O)oc3c2C)OC1(C)C	855422-203-R-J1-PDC complex spheroid viability	%	112
CCc1c2c(nc3ccc(O)cc13)-c1cc3c(c(=O)n1C2)COC(=O)[C@]3(O)CC + Nc1ccc(C#CCN(C(=O)Cc2ncc(C(F)(F)F)cc2C(F)(F)F)c2ccc(F)cc2)nn1	855422-203-R-J1-PDC complex spheroid viability	%	94.7
Cn1ncnc1[C@H]1c2n[nH]c(=O)c3cc(F)cc(c23)N[C@@H]1c1ccc(F)cc1 + Nc1ccc(C#CCN(C(=O)Cc2ncc(C(F)(F)F)cc2C(F)(F)F)c2ccc(F)cc2)nn1	855422-203-R-J1-PDC complex spheroid viability	%	96
COc1cccc(OCCCN)c1-c1cc(Nc2cnc(C#N)cn2)n[nH]1 + COC1C(OC(N)=O)C(O)C(Oc2ccc3c(O)c(NC(=O)c4ccc(O)c(CC=C(C)C)c4)c(=O)oc3c2C)OC1(C)C	855422-203-R-J1-PDC complex spheroid viability	%	118
COc1cccc(OCCCN)c1-c1cc(Nc2cnc(C#N)cn2)n[nH]1 + Cc1cccc(N(C)C(=O)C2C(O)CCN2c2nc(C)cc(C(F)(F)F)c2C#N)c1	855422-203-R-J1-PDC complex spheroid viability	%	97.4
COc1cccc(OCCCN)c1-c1cc(Nc2cnc(C#N)cn2)n[nH]1 + Nc1ccc(C#CCN(C(=O)Cc2ncc(C(F)(F)F)cc2C(F)(F)F)c2ccc(F)cc2)nn1	855422-203-R-J1-PDC complex spheroid viability	%	105
